Data origin: patent US10941158B2

Please provide measured IC90 for the entries that follow.
System: Fusarium virguliforme (Fv)
Assay: Growth inhibition assay of fungal pathogens
Assay type: cell-based
Conditions: 48 h, Table 4b, 48 hours, read-out: Concentration at 90% Inhibition Fv
Method: Compounds of the present invention were evaluated in a growth inhibition assay to determine the ability to control the growth of fungal pathogens, such as Botrtyis cinerea (Bc), Collectotrichum graminicola (Cg). […] Once the compound was added, a true final concentration of compound in each well was measured by an OD600 reading, which adjusted for any compound precipitation that might have occurred in the well. Plate readings were repeated at both 24 and 48 hours. […]
Express your answer as a number followed by its unit.

Recorded IC90, per entry:
{"COMPOUND": "COc1ccc(F)cc1[C@H](Cn1c(=O)n([C@@H](C)C(=O)N2CCCC2)c(=O)c2c(C)c(-n3cccn3)sc21)OC(C)C [Compound I-31]", "TARGET_SYSTEM": "Fusarium virguliforme (Fv)", "IC90": "0.4 µg/mL"}
{"COMPOUND": "COc1ccc(F)cc1[C@H](Cn1c(=O)n(C(C)(C)C(=O)N2CCCC2)c(=O)c2c(C)c(-n3cccn3)sc21)OCC(C)(C)O [Compound I-42]", "TARGET_SYSTEM": "Fusarium virguliforme (Fv)", "IC90": "10 µg/mL"}

Proceeding to the next compound to report its IC90.
Query block: Write down the reported IC90 of COc1ccc(F)cc1[C@H](Cn1c(=O)n(C(C)(C)C(=O)NC(C)C)c(=O)c2c(C)c(-n3cccn3)sc21)OC(C)C.I [Compound I-1] , test system: Fusarium virguliforme (Fv).
Result block: 0.4 µg/mL

* * *

tested on: Phytophthora capsici (Pc); experiment: Growth inhibition assay of fungal pathogens; format: cell-based; settings: Phytophthora capsici; Table 4b, 48 hours; read-out: Concentration at 90% Inhibition Pc
Would you kindly list IC90 for each of these compounds?

{"COMPOUND": "COc1ccccc1[C@H](Cn1c(=O)n(C(C)(C)C(N)=O)c(=O)c2c(C)c(-n3cccn3)sc21)OC1CCOCC1 [Compound I-10]", "IC90": "> 50 µg/mL"}
{"COMPOUND": "COCCO[C@@H](Cn1c(=O)n([C@@H](C)C(=O)N2CCCC2)c(=O)c2c(C)c(-n3cccn3)sc21)c1cc(F)ccc1OC [Compound I-75]", "IC90": "> 50 µg/mL"}

Here's the next entry for you.
Query block: Any idea what IC90 was measured for COCCO[C@@H](Cn1c(=O)n(C(C)(C)C(=O)N2CCCC2)c(=O)c2c(C)c(-n3cccn3)sc21)c1cc(F)ccc1OC [Compound I-44] ?
Result block: > 50 µg/mL

* * *

What IC90 was measured for each of the following?
system: Rhizoctonia solani (Rs); assay: Growth inhibition assay of fungal pathogens; type: cell-based; conditions: 48 h, Table 4a, read-out: Concentration at 90% Inhibition Rs
Numbers only, in µg/mL.

Take a look at these entries with their results.
{"COMPOUND": "COc1ccc(F)cc1[C@H](Cn1c(=O)n(CC(=O)N2CCCC2)c(=O)c2c(C)c(-n3cccn3)sc21)OC(C)C [Compound I-28]", "REPORTED_PROPERTY": "IC90", "VALUE_MEASURED": 10}
{"COMPOUND": "COc1ccc(F)cc1[C@H](Cn1c(=O)n(C(C)C(=O)NC(C)C)c(=O)c2c(C)c(-n3cccn3)sc21)OC(C)C (stereo partly shown) [Compound I-29]", "REPORTED_PROPERTY": "IC90", "VALUE_MEASURED": 2}
{"COMPOUND": "COc1ccc(F)cc1[C@H](Cn1c(=O)n(C(C)(C)C(=O)NC(C)C)c(=O)c2c(C)c(-n3cccn3)sc21)OC[C@H](C)O [Compound I-38]", "REPORTED_PROPERTY": "IC90", "VALUE_MEASURED": 10}
{"COMPOUND": "COc1ccc(F)cc1[C@H](Cn1c(=O)n(C(C)(C)C(=O)N2CCCC2)c(=O)c2c(C)c(-n3cccn3)sc21)OC1CCOCC1 [Compound I-7]", "REPORTED_PROPERTY": "IC90", "VALUE_MEASURED": 2}
{"COMPOUND": "COc1ccc(F)cc1[C@H](Cn1c(=O)n(C(C)(C)C(=O)NC(C)C)c(=O)c2c(C)c(-n3cccn3)sc21)O[C@H]1CC[C@@H](O)CC1 [Compound I-14]", "REPORTED_PROPERTY": "IC90", "VALUE_MEASURED": 2}
{"COMPOUND": "COc1ccc(F)cc1[C@H](Cn1c(=O)n(C(C)(C)C(=O)NC(C)C)c(=O)c2c(C)c(-n3cccn3)sc21)OC1CCC(=O)CC1 [Compound I-26]", "REPORTED_PROPERTY": "IC90", "VALUE_MEASURED": 2}
{"COMPOUND": "CCO[C@@H](Cn1c(=O)n(C(C)(C)C(=O)NC(C)C)c(=O)c2c(C)c(-n3cccn3)sc21)c1cc(F)ccc1OC [Compound I-33]", "REPORTED_PROPERTY": "IC90", "VALUE_MEASURED": 10}
{"COMPOUND": "COc1ccc(F)cc1[C@H](Cn1c(=O)n([C@@H](C)C(=O)N2CCCC2)c(=O)c2c(C)c(-n3cccn3)sc21)OC(C)C [Compound I-31]", "REPORTED_PROPERTY": "IC90", "VALUE_MEASURED": 2}

Parameters: items (list). Returns: IC90 for each item.
1. COc1ccc(F)cc1[C@H](Cn1c(=O)n(C(C)(C)C(=O)NC(C)C)c(=O)c2c(C)c(-n3cccn3)sc21)OCCO [Compound I-35]
2. COc1ccc(F)cc1[C@H](Cn1c(=O)n(C(C)(C)C(=O)NC(C)C)c(=O)c2c(C)c(-n3cccn3)sc21)OC(C)C.I [Compound I-1]
3. COc1ccc(F)cc1[C@H](Cn1c(=O)n(C(C)(C)C(=O)N2CC=CC2)c(=O)c2c(C)c(-n3cccn3)sc21)OC1CCOCC1 [Compound I-45]

Result block:
[2, 2, 2]

* * *

test system: C. parapsilosis ATCC 22019; assay: Anti-Fungal (Candida) Activity Assay, broth microtiter MIC; assay type: cell-based; details: Lodderomyces parapsilosis, ATCC22019; 3 replicates, MIC recorded at 48 h; read-out: MIC C. parapsilosis ATCC 22019
Would you mind telling me the reported MIC of each entry?

{"COMPOUND": "COc1ccc(F)cc1[C@H](Cn1c(=O)n(C(C)(C)C(=O)NC(C)C)c(=O)c2c(C)c(-n3cccn3)sc21)O[C@H]1CC[C@@H](O)CC1 [Compound I-14]", "MIC": "0.25 to 1 µg/mL"}
{"COMPOUND": "COc1ccc(F)cc1[C@H](Cn1c(=O)n(C(C)C(=O)N2CCCC2)c(=O)c2c(C)c(-n3cccn3)sc21)OCCO (stereo partly drawn) [Compound I-58]", "MIC": "> 4.1 µg/mL"}

Query block: What value of MIC on C. parapsilosis ATCC 22019 does Cc1c(-n2cccn2)sc2c1c(=O)n(C(C)(C)C(=O)N1CCCC1)c(=O)n2C[C@H](OC1CCOCC1)c1cc(F)ccc1OCCO [Compound I-51] have?
Result block: 2.1 to 4 µg/mL

* * *

So I've got IC50 readings for fungal (fACC2) ACC2 (UniProt Q00955), take a look.

Examples from the recorded data:
{"MOLECULE": "COc1ccccc1[C@H](Cn1c(=O)n(C(C)(C)C(=O)N2CCCC2)c(=O)c2c(C)c(-n3cccn3)sc21)OC(C)C [Compound I-18]", "TARGET_SYSTEM": "fungal (fACC2) ACC2 (UniProt Q00955)", "IC50": "0.6 to 3 nM"}
{"MOLECULE": "COc1ccc(F)cc1[C@H](Cn1c(=O)n(C(C)C(N)=O)c(=O)c2c(C)c(-n3cccn3)sc21)OCCO (stereo partly drawn) [Compound I-61]", "TARGET_SYSTEM": "fungal (fACC2) ACC2 (UniProt Q00955)", "IC50": "0.6 to 3 nM"}
{"MOLECULE": "COc1ccc(F)cc1[C@H](Cn1c(=O)n(C(C)(C)C(=O)NC(C)C)c(=O)c2c(C)c(-n3cccn3)sc21)OCCO [Compound I-35]", "TARGET_SYSTEM": "fungal (fACC2) ACC2 (UniProt Q00955)", "IC50": "0.6 to 3 nM"}
{"MOLECULE": "COc1ccccc1[C@H](Cn1c(=O)n(C(C)(C)C(=O)NC(C)C)c(=O)c2c(C)c(-n3cccn3)sc21)OCCC#N [Compound I-80]", "TARGET_SYSTEM": "fungal (fACC2) ACC2 (UniProt Q00955)", "IC50": "3 to 10 nM"}
{"MOLECULE": "COc1ccc(F)cc1[C@H](Cn1c(=O)n(C(C)C(N)=O)c(=O)c2c(C)c(-n3cccn3)sc21)OCC(C)(C)O (stereo partly drawn) [Compound I-68]", "TARGET_SYSTEM": "fungal (fACC2) ACC2 (UniProt Q00955)", "IC50": "0.6 to 3 nM"}

Next:
Query block: Look up IC50: COc1ccc(F)cc1[C@H](Cn1c(=O)n(C(C)C(=O)NC(C)C)c(=O)c2c(C)c(-n3cccn3)sc21)OCC(C)(C)O (stereo partly drawn) [Compound I-67]
Result block: 0.6 to 3 nM
